Measured EC50 hGLP1R 0.5% hP (CreLuc) of individual entries
molecular target: GLP-1 receptor (human (printed as hGLP1R), UniProt P43220 24-463); experiment: cell-based or functional assay
Starred links: 1 amine or outer side, 2 acyl side, 3 side chain; linkers in the order of their positions; H or OH if unused. Non-standard residues stand in square brackets, D forms with d. Groups on a side chain read outwards from the residue. No end group written: not given here. *: point of attachment. C20 diacid = O=C(O)CCCCCCCCCCCCCCCCCCC(=O)*; C18 diacid = O=C(O)CCCCCCCCCCCCCCCCC(=O)*; γGlu = O=C(O)[C@H](CCC(=O)[*:2])N[*:1]; Aib = CC(C)(N)C(=O)O
quantity_measured: EC50 hGLP1R 0.5% hP (CreLuc) (nM)

binder: Y[Aib]EGTFTSDYSI[Aib]LEKQAQ[Aib]EFVQWLIK([γGlu-γGlu-γGlu-γGlu-C18 diacid])GGPSEGASLRHYYNWLTRQRY-NH2 (also: TFA salt) [Compound 202]
val: 0.21
--
binder: Y[Aib]EGTFTSDYSI[Aib]LEKQAQ[Aib]EFVQWLIK([γGlu-γGlu-γGlu-γGlu-γGlu-γGlu-C20 diacid])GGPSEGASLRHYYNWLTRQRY-NH2 (also: TFA salt) [Compound 185]
val: 0.4
